Each entry below carries its recorded TGI.
- Tested on: SN12C renal
- procedureText: NCI tumour cell line growth inhibition, 48 h

Below: 3 compounds and their reported TGI.
N#Cc1ccccc1NC(=O)/C(=N\N)C(C(=O)c1ccncc1)C1OC(=O)c2ccccc21 (stereo not drawn)
> 100 µM
COc1ccc2oc(=O)cc(C(c3ccc[nH]3)c3ccc[nH]3)c2c1
15.8 µM
CCNC(=O)[C@@H]1CCCN2C(=O)CC[C@H](NC(=O)[C@H](Cc3ccc(OP(=O)(O)O)cc3)NC(C)=O)C(=O)N12
> 25 µM

Report TGI for CCc1nc(N)nc(N)c1-c1ccc(NCCN)c([N+](=O)[O-])c1
> 100 µM

Using the record for Cc1c(C#N)c2nnn(-c3ccc(Cl)cc3)c(=O)n2c1-c1ccccc1 , state its measured TGI.
3.85 µM

Complete the entry with TGI for CCNC(C)Cc1ccccc1 (stereo not drawn)
> 100 µM

Please give the documented TGI of Cc1c2cc[n+](C)cc2c(C)c2c1sc1ccccc12
0.747 µM

Provide only the value of recorded TGI for CC(=O)NCCc1c2c(c3nccc4c3c1Nc1ccccc1-4)OCS2
4.79 µM

Provide measured TGI value, entry: CC12CCC3C(CCC4Cc5[nH]c6ccccc6c5CC43C)C1CCC2O (stereo not drawn)
> 100 µM

Query TGI for CS(=O)(=O)c1ccc(/C=N/NC(N)=S)cc1
> 100 µM

###

Below, each of the compounds is paired with its reported log10 of TGI value.
- Test system: MDA-MB-435
- procedureText: NCI tumour cell line growth inhibition, 48 h
Answers are given as log10 of TGI in µM.

O=C1c2c(Cl)c(Cl)c(Cl)c(Cl)c2C(=O)N1CCN(c1c(Cl)ssc1=O)c1c(Cl)ssc1=O
1.66
Cc1c(C#N)c2nnn(-c3ccc(Cl)cc3)c(=O)n2c1-c1ccccc1
-0.81
C=CC[n+]1c(/C=C/C=C2\N(C)c3ccccc3C2(C)C)sc2ccc(OC)cc21
1.03

Give the reported log10 of TGI for this compound. CO/N=C(\C)c1ccc(Nc2c3ccccc3nc3occc23)cc1
-0.65

Specify log10 of TGI for COc1cc(NS(C)(=O)=O)ccc1Nc1c2ccc([N+](=O)[O-])cc2nc2c(C)cccc12 and stop.
1.18

Respond only with log10 of TGI recorded for NCCSc1nc2ccccc2s1
1.84

###

- System: RPMI-8226 leukemia
- procedureText: NCI tumour cell line growth inhibition, 48 h
*1 amine or outer side, *2 acyl side, *3 side chain or, on linkers, in order; H or OH if unused. Where a SMILES comes first, the peptide text is derived from it. [ ]: non-standard residue; d: D form. The star is where a group is joined. X31 = CC(=O)N(C)SCC(N[*:1])C(=O)[*:2]; X47 = CC(=O)N(C)SCC(N*)/C(O)=N\O; Cbz = O=C(OCc1ccccc1)*; Bn = c1ccc(C*)cc1; For = O=C*
Parameter threshold = 20 µM. Response is YES when TGI meets or exceeds it, else NO.

Reference set (8 entries):
Cc1c(N2CCCC2)cc2c(c1NC(=O)c1ccccc1Cl)C(C)(C)CC2(C)C
YES
Cc1ccc2c3c1O[C@H]1c4[nH]c5ccccc5c4C[C@@]4(O)[C@@H](C2)N(C)CC[C@]314
YES
CCOC(=O)c1c2c(c(O)c3ccccc3c(O)n(Cc3ccc(OC)cc3)c1C)C(=O)C=CC2=O
YES
COc1cc(NS(C)(=O)=O)ccc1Nc1c2ccc([N+](=O)[O-])cc2nc2c(C)cccc12
NO
COc1cc(C(=O)/C=C/c2c(C)n([O-])c3ccc(C)cc3[n+]2=O)cc(OC)c1OC
NO
COc1ccc2oc(=O)cc(C(c3ccc[nH]3)c3ccc[nH]3)c2c1
NO
CC(=O)N(C)SCC(NC(=O)C(Cc1ccccc1)NC(=O)OCc1ccccc1)C(=O)NC(Cc1ccccc1)C(=O)NC(Cc1cn(C=O)c2ccccc12)C(=O)NC(CCCCNC(=O)OCc1ccccc1)C(=O)NC(C(=O)NC(CSN(C)C(C)=O)/C(O)=N\O)C(C)OCc1ccccc1 (stereo not drawn) (Cbz-F[X31]FW(For)K(Cbz)T(Bn)-X47; configuration not given here)
YES
CC1(C)N=C(N)N=C(N)N1c1cccc(CCCCc2cccc(S(=O)(=O)F)c2)c1
YES

Does TGI meet or surpass 20 µM for C=C(C)C(=O)O[C@H]1C/C(CO)=C/CCC(=C)C(OC(C)=O)[C@H]2OC(=O)C(=C)[C@H]12 (stereo partly drawn) ?
NO

Is the recorded value of TGI equal to or greater than 20 µM for this molecule? CN(C)CCOc1ccc2[nH]c(C(=O)N3CC(CCl)c4c3cc(N)c3ccccc43)cc2c1 (stereo not drawn)
NO

Dear colleague, could you confirm whether O=C(Nc1ccc(Cl)c(Cl)c1)c1cccc(NC2=C(Cl)C(=O)N(Cc3ccccc3)C2=O)c1 has TGI at or above 20 µM?
YES
